- Test system: A549
- assay-remarks: Antiproliferative activity against human A549 cells after 72 hrs by MTT assay
- Type: functional, cell-based
- particulars: A549, 72 h
Quick reference: pIC50 of the listed items.
Kindly note that pIC50 refers to -log10 of the concentration in mol/L and answer with the value alone.

These recorded examples may help you get a feel for the data.
> print(dat)
                             chemical.string  assay.endpoint  test.value
 1  COc1ccc(-c2nn3c(-c4ccc5c(c4)OCO5)nnc3s2)cc1           pIC50        4.53
 2  COc1ccc(-c2cc3[nH]nc(-c4cc(OC)c(OC)c(OC)c4)n3n2)cc1N           pIC50        4.76
 3  COc1cc(C(=O)c2c[nH]c(-c3ccccc3)n2)cc(OC)c1OC           pIC50        6.01
 4  COc1ccc(-c2nn3c(-c4ccc5c(c4)OCO5)nnc3s2)cc1[N+](=O)[O-]           pIC50        4.48
 5  COc1ccc(-c2nnc3sc(-c4ccc(OC)c([N+](=O)[O-])c4)nn23)cc1           pIC50        4.57
 6  COc1ccc(-c2cc3[nH]nc(-c4cc(OC)c(OC)c(OC)c4)n3n2)cc1           pIC50        4.58
 7  COc1cc(C(=O)c2csc(-c3ccccc3)n2)cc(OC)c1OC           pIC50        7.54
 8  COc1cccc(-c2nnc3sc(-c4ccc(OC)c(N)c4)nn23)c1           pIC50        6.92
 9  COc1ccc(-c2nn3c(-c4ccc(OC)c(OC)c4OC)nnc3s2)cc1           pIC50        5.64
10  COc1cccc(-c2nnc3sc(-c4ccc(OC)c([N+](=O)[O-])c4)nn23)c1           pIC50        4.53

Fill in the recorded pIC50 for this compound, with A549 as test system: COc1ccc(-c2cc3[nH]nc(-c4cc(OC)c(OC)c(OC)c4)n3n2)cc1[N+](=O)[O-]
4.24

I'm curious: which pIC50 was measured for COc1ccc(-c2nn3c(-c4ccc(OC)c(OC)c4)nnc3s2)cc1N tested on A549?
6.28

GET /values?readout=pIC50&system=A549&item= COc1ccc(-c2nn3c(-c4ccc(OC)c(OC)c4OC)nnc3s2)cc1N
7.09

----------
- assay-remarks: Inhibition of porcine brain tubulin polymerization preincubated for 1 min followed by GTP addition measured at 1 min intervals for 90 mins by spectrophotometric method
assay-endpoint: pIC50
Schema: pIC50 number; meaning minus log10 of the concentration expressed in molar units.

Tell me the measured pIC50 of COc1ccc(-c2nn3c(-c4cc(OC)c(OC)c(OC)c4)nnc3s2)cc1N , please.
6.11

----------
- Test system: A549
- assay-remarks: Antiproliferative activity against human A549 cells after 72 hrs by MTT assay
- Assay type: functional, cell-based
- particulars: A549, 72 h
pIC50: −log10 of the molar value.
# label = 1 (yes) if pIC50 >= 6 else 0 (no)

Please review the entries below; each comes with its answer.
> print(dat)
                            chemical.string  assigned.category
1  COc1ccc(-c2nn3c(-c4cc(OC)c(OC)c(OC)c4)nnc3s2)cc1N            1 (yes)
2  COc1cc(-c2n[nH]c3cc(-c4ccc(C)cc4)nn23)cc(OC)c1OC             0 (no)
3  COc1ccc(-c2nn3c(-c4ccc(OC)c(OC)c4OC)nnc3s2)cc1[N+](=O)[O-]             0 (no)

Would you say COc1ccc(-c2nnc3sc(-c4ccc(OC)c(N)c4)nn23)cc1 shows pIC50 at minimum 6?
0 (no)

Origin of values: ChEMBL document CHEMBL4130379
